Ref: the supplement of paper PMC11424490

- System: NCI-H2122
- PROTOCOL_NOTES: relative IC50 of cell viability (CellTiter-Glo); higher = less potent
Hi! Could you tag entries with relative IC50 of cell viability below 2000 nM as Condition met, and those at or above as Condition not met? Much appreciated.

[
  {
    "MOLECULE": "COc1cc2nccc(Oc3ccc(NC(=O)C4(C(=O)Nc5ccc(F)cc5)CC4)cc3)c2cc1OC [XL-184] (top concentration tested 9999.9 nM)",
    "QUALITATIVE_LABEL": "Condition not met"
  },
  {
    "MOLECULE": "CCN1CCN(Cc2ccc(Nc3ncc(F)c(-c4cc(F)c5nc(C)n(C(C)C)c5c4)n3)nc2)CC1 [Abemaciclib] (top concentration tested 10000 nM)",
    "QUALITATIVE_LABEL": "Condition met"
  },
  {
    "MOLECULE": "CC[C@]1(O)C[C@@H]2CN(CCc3c([nH]c4ccccc34)[C@@](C(=O)OC)(c3cc4c(cc3OC)N(C)[C@H]3[C@@](O)(C(=O)OC)[C@H](OC(C)=O)[C@]5(CC)C=CCN6CC[C@]43[C@@H]65)C2)C1 [Vinblastine] (top concentration tested 99.992 nM)",
    "QUALITATIVE_LABEL": "Condition met"
  },
  {
    "MOLECULE": "O=C(CCCCCCC(=O)Nc1ccccc1)NO [Vorinostat] (top concentration tested 10000 nM)",
    "QUALITATIVE_LABEL": "Condition not met"
  },
  {
    "MOLECULE": "CCc1nc(N)nc(N)c1-c1ccc(Cl)cc1 [Pyrimethamine] (top concentration tested 50000 nM)",
    "QUALITATIVE_LABEL": "Condition not met"
  },
  {
    "MOLECULE": "COC(=O)c1ccc2c(c1)NC(=O)/C2=C(\\Nc1ccc(N(C)C(=O)CN2CCN(C)CC2)cc1)c1ccccc1 [Nintedanib] (top concentration tested 10000 nM)",
    "QUALITATIVE_LABEL": "Condition not met"
  },
  {
    "MOLECULE": "N[C@@H](Cc1ccc(N(CCCl)CCCl)cc1)C(=O)O [Melphalan] (top concentration tested 10000 nM)",
    "QUALITATIVE_LABEL": "Condition not met"
  },
  {
    "MOLECULE": "NC1(c2ccc(-c3nc4ccn5c(=O)[nH]nc5c4cc3-c3ccccc3)cc2)CCC1 [MK-2206] (top concentration tested 10000 nM)",
    "QUALITATIVE_LABEL": "Condition not met"
  },
  {
    "MOLECULE": "Nc1nc2[nH]cc(CCc3ccc(C(=O)N[C@@H](CCC(=O)O)C(=O)O)cc3)c2c(=O)[nH]1 [Pemetrexed] (top concentration tested 10000 nM)",
    "QUALITATIVE_LABEL": "Condition met"
  },
  {
    "MOLECULE": "CCc1c2c(nc3ccc(O)cc13)-c1cc3c(c(=O)n1C2)COC(=O)[C@]3(O)CC [SN-38] (top concentration tested 99.894 nM)",
    "QUALITATIVE_LABEL": "Condition met"
  },
  {
    "MOLECULE": "CO[C@H]1/C=C/C[C@H](C)[C@@H](C)S(=O)(=O)NC(=O)c2ccc3c(c2)N(C[C@@H]2CC[C@H]21)C[C@@]1(CCCc2cc(Cl)ccc21)CO3 [AMG176] (top concentration tested 10000 nM)",
    "QUALITATIVE_LABEL": "Condition not met"
  },
  {
    "MOLECULE": "CC(C)NC[C@@H](C(=O)N1CCN(c2ncnc3c2[C@H](C)C[C@H]3O)CC1)c1ccc(Cl)cc1 [Ipatasertib] (top concentration tested 10000 nM)",
    "QUALITATIVE_LABEL": "Condition met"
  },
  {
    "MOLECULE": "COc1cc(Nc2c(C#N)cnc3cc(OCCCN4CCN(C)CC4)c(OC)cc23)c(Cl)cc1Cl [Bosutinib] (top concentration tested 10000 nM)",
    "QUALITATIVE_LABEL": "Condition not met"
  },
  {
    "MOLECULE": "CCOC(=O)CCNc1cc(N2CCc3ccccc3CC2)nc(-c2ccccn2)n1 [GSK-J4] (top concentration tested 50000 nM)",
    "QUALITATIVE_LABEL": "Condition not met"
  },
  {
    "MOLECULE": "O=c1cc(N2CCOCC2)oc2c(-c3cccc4c3sc3ccccc34)cccc12 [NU-7441] (top concentration tested 10000 nM)",
    "QUALITATIVE_LABEL": "Condition not met"
  },
  {
    "MOLECULE": "CC(=O)O[C@H]1C(=O)[C@@]2(C)[C@H]([C@H](OC(=O)c3ccccc3)[C@]3(O)C[C@H](OC(=O)[C@H](O)[C@@H](NC(=O)c4ccccc4)c4ccccc4)C(C)=C1C3(C)C)[C@]1(OC(C)=O)CO[C@@H]1C[C@@H]2O [Paclitaxel] (top concentration tested 100.01 nM)",
    "QUALITATIVE_LABEL": "Condition met"
  }
]
